B1: Homeobox protein cut-like 2, residues 895 to 963; numbered along this chain, O14529 (parent)
chain: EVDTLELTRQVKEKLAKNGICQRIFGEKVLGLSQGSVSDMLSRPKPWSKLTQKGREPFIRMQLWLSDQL

variants of: B1; experiment: abundance fitness (aPCA) (normalised: wild type 0, dead -1); higher = more abundant; growth selection in yeast, the domain comes from the species named; conditions: Homo sapiens
Collected abundance fitness values appear next to each entry.

| variant-key | abundance fitness |
| --- | --- |
| S36T | 0.002 |
| Q34Y | -0.05 |
| V37E | -0.436 |
| W47V | -0.808 |
| V37G | -0.206 |
| S66W | -0.08 |
| Q10M | 0.082 |
| G26L | -0.162 |
| L69G | -0.056 |
| G26M | -0.153 |
| E27A | -0.063 |
| G31W | -0.367 |
| S48Y | -0.084 |
| R43H | 0.004 |
| R60I | -0.653 |
| T4E | -0.208 |
| E13T | -0.144 |
| R43S | 0.064 |
| D3E | -0.277 |
| V2H | -0.201 |
| S36A | 0.073 |
| S36V | 0.064 |
| F58K | -1.11 |
| E1D | -0.457 |
| G31C | -0.257 |
| W47M | -0.681 |
| E6R | -0.162 |
| P44T | -0.101 |
| R23P | -0.627 |
| P44G | -0.261 |
| K12A | -0.372 |
| R60Q | -0.111 |
| N18R | 0.013 |
| G35Q | 0.088 |
| T4I | -0.126 |
| R23D | -0.042 |
| G35F | -0.079 |
| V11P | -0.141 |
